Test system: MCF-7 cells
Assay: MTT viability assay, MCF-7
Assay type: cell-based
Settings: Homo sapiens, MCF7, 24 h, read-out: EC50 ± SD MCF-7
The entries below are paired with their reported EC50.
ATTRIBUTE_MEASURED: EC50 (µM)

ITEM_SMILES | UNITS_TEXT | VALUE_COMPARATOR | RESULT_VALUE
CCCCCCCCCCCC(=O)OCCCn1c(C)nc2c(Br)c(Br)c(Br)c(Br)c21 | µM | > | 100
CCCCCC(=O)OCCCn1cnc2c(Br)c(Br)c(Br)c(Br)c21 | µM | = | 39.6
OCCCn1cnc2c(Br)c(Br)c(Br)c(Br)c21 | µM | = | 24.1
Cc1nc2c(Br)c(Br)c(Br)c(Br)c2n1CCCO | µM | = | 17.6
CCCCCCCC(=O)OCCCn1cnc2c(Br)c(Br)c(Br)c(Br)c21 | µM | = | 24.3

----------
Target: CK2 holoenzyme (CK2 α2β2) (Homo sapiens)
Sequence (P68400 whole entry): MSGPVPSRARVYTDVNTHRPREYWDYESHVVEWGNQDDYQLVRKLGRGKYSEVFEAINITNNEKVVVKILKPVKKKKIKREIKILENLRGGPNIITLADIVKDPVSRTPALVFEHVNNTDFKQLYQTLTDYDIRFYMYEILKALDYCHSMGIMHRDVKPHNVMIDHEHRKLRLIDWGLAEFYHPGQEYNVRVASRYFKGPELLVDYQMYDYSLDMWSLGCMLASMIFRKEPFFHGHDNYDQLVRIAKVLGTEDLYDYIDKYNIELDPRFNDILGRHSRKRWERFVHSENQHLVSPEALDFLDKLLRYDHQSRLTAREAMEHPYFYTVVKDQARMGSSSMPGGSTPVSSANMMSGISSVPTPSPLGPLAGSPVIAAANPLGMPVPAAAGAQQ
Sequence (P67870 whole entry partner): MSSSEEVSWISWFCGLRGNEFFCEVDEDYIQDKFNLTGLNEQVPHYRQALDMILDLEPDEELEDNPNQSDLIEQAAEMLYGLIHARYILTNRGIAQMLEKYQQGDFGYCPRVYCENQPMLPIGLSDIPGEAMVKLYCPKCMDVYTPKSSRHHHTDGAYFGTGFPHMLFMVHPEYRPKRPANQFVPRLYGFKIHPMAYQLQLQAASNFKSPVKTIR
Assay: Radiometric (P81 filter isotopic) kinase assay, CK2 holoenzyme
Type: biochemical
Conditions: 10 µM compound; read-out: Residual Activity of the Enzyme CK2 α2β2
Response field label takes yes when remaining activity at 10 µM is strictly below 70% and no in all other cases.

COMPOUND | TESTED_TARGET | CATEGORY_LABEL
Cc1nc2c(Br)c(Br)c(Br)c(Br)c2[nH]1 [Compound 4, reference compound] | CK2 holoenzyme (CK2 α2β2) (Homo sapiens) | yes
CCCCCCCC(=O)OCCCn1c(C)nc2c(Br)c(Br)c(Br)c(Br)c21 [Compound 6c] | CK2 holoenzyme (CK2 α2β2) (Homo sapiens) | no
CCCC(=O)OCCCn1c(C)nc2c(Br)c(Br)c(Br)c(Br)c21 [Compound 6a] | CK2 holoenzyme (CK2 α2β2) (Homo sapiens) | yes
O=C(O)c1ccc2c(c1)nc(Nc1cccc(Cl)c1)c1ccncc12 [CX-4945, silmitasertib, reference compound] | CK2 holoenzyme (CK2 α2β2) (Homo sapiens) | yes
CCCCCC(=O)OCCCn1cnc2c(Br)c(Br)c(Br)c(Br)c21 [Compound 3b] | CK2 holoenzyme (CK2 α2β2) (Homo sapiens) | no
Cc1nc2c(Br)c(Br)c(Br)c(Br)c2n1CCCO [Compound 5] | CK2 holoenzyme (CK2 α2β2) (Homo sapiens) | yes
CCCC(=O)OCCCn1cnc2c(Br)c(Br)c(Br)c(Br)c21 [Compound 3a] | CK2 holoenzyme (CK2 α2β2) (Homo sapiens) | yes
CCCCCCCC(=O)OCCCn1cnc2c(Br)c(Br)c(Br)c(Br)c21 [Compound 3c] | CK2 holoenzyme (CK2 α2β2) (Homo sapiens) | no

----------
The entries below are paired with their reported melting point.

ITEM_SMILES | melting point
CCCC(=O)OCCCn1c(C)nc2c(Br)c(Br)c(Br)c(Br)c21 | 81 to 82 °C
CCCCCCCCCCCC(=O)OCCCn1cnc2c(Br)c(Br)c(Br)c(Br)c21 | 59 to 60 °C
Cc1nc2c(Br)c(Br)c(Br)c(Br)c2n1CCCO | 227 to 230 °C
CCCC(=O)OCCCn1cnc2c(Br)c(Br)c(Br)c(Br)c21 | 96 to 97 °C
CCCCCCCC(=O)OCCCn1c(C)nc2c(Br)c(Br)c(Br)c(Br)c21 | 61 to 65 °C
CCCCCCCCCCCC(=O)OCCCn1c(C)nc2c(Br)c(Br)c(Br)c(Br)c21 | 69 to 70 °C
CCCCCC(=O)OCCCn1cnc2c(Br)c(Br)c(Br)c(Br)c21 | 65 to 67 °C
